Entry source: patent US4361577A

molecular target: 15-hydroxy-prostaglandin-dehydrogenase (Homo sapiens); construct: 15-hydroxy-prostaglandin-dehydrogenase drawn from human placenta; from tissue; host or cells: human placenta; assay: inhibition of 15-hydroxy-prostaglandin-dehydrogenase drawn from human placenta, in vitro; assay type: biochemical; settings: inhibition with respect to PGF2α
Sequence (P15428 whole entry): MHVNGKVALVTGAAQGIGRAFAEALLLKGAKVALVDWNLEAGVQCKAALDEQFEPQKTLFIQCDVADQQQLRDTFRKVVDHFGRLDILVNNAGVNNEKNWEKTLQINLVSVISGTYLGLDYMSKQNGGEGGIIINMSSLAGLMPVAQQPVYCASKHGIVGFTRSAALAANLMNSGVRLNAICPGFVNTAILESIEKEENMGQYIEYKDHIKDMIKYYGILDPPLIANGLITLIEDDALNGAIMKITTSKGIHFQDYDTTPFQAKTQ
Metric: Ki

Please give the measured Ki for this compound: O=C(O)CCCC=CCC1C(O)CC(O)C1C#CC(O)CCC1CCCCC1 (stereo not shown)
152 µM

###

target: 15-hydroxy-prostaglandin-dehydrogenase (Homo sapiens); construct: 15-hydroxy-prostaglandin-dehydrogenase drawn from human placenta; from tissue; host or cells: human placenta; experiment: inhibition of 15-hydroxy-prostaglandin-dehydrogenase drawn from human placenta, in vitro; format: biochemical; details: inhibition with respect to PGE2
Metric: Ki (µM)
Could you give me the number in µM? Just the number is fine.

What Ki value was documented for this molecule, O=C(O)CCCC=CCC1C(O)CC(O)C1C#CC(O)CCC1CCCCC1 (stereo not shown) ?
468
